- Test system: HARA
- assay_name: relative viability (nuclei count vs DMSO), 5 days (fraction); higher = more cells survive
- reported_conditions: first compound 50 µM

[
  {
    "compound": "O=C(O)CCCCC(CCSCc1ccccc1)SCc1ccccc1 (centres undefined) [CPI-613] + Cc1nc(Nc2ncc(C(=O)Nc3c(C)cccc3Cl)s2)cc(N2CCN(CCO)CC2)n1 [Dasatinib] (partner 0.075 µM)",
    "relative viability": 0.309
  },
  {
    "compound": "O=C(O)CCCCC(CCSCc1ccccc1)SCc1ccccc1 (centres undefined) [CPI-613] + Cc1cc(Nc2cc(N3CCN(C)CC3)nc(Sc3ccc(NC(=O)C4CC4)cc3)n2)n[nH]1 [Tozasertib] (partner 0.1 µM)",
    "relative viability": 0.0973
  },
  {
    "compound": "O=C(O)CCCCC(CCSCc1ccccc1)SCc1ccccc1 (centres undefined) [CPI-613] + N=C(N)NC(=N)NCCc1ccccc1 [Phenformin] (partner 250 µM)",
    "relative viability": 0.444
  },
  {
    "compound": "O=C(O)CCCCC(CCSCc1ccccc1)SCc1ccccc1 (centres undefined) [CPI-613] + CCNC(=O)c1noc(-c2cc(C(C)C)c(O)cc2O)c1-c1ccc(CN2CCOCC2)cc1 [Luminespib] (partner 0.01 µM)",
    "relative viability": 0.757
  }
]

----------
- Test system: NCI-H727
- assay_name: relative viability (nuclei count vs DMSO), 5 days (fraction); higher = more cells survive
- reported_conditions: first compound 0.01581 µM
Consider the cut-off 0.6. If the recorded relative viability is strictly smaller, the label is yes; if not, the label is no.

[
  {
    "molecule": "COc1cc2nccc(Oc3ccc(NC(=O)Nc4cc(C)on4)c(Cl)c3)c2cc1OC [Tivozanib] + O=C(c1cc(Cc2n[nH]c(=O)c3ccccc23)ccc1F)N1CCN(C(=O)C2CC2)CC1 [Olaparib] (partner 8 µM)",
    "label": "no"
  },
  {
    "molecule": "COc1cc2nccc(Oc3ccc(NC(=O)Nc4cc(C)on4)c(Cl)c3)c2cc1OC [Tivozanib] + N=C(N)NC(=N)NCCc1ccccc1 [Phenformin] (partner 250 µM)",
    "label": "yes"
  },
  {
    "molecule": "Nc1ccn([C@@H]2O[C@H](CO)[C@@H](O)[C@@H]2O)c(=O)n1 [Cytarabine] + CC(C)C[C@H](NC(=O)[C@H](Cc1ccccc1)NC(=O)c1cnccn1)B(O)O [Bortezomib] (partner 0.002 µM)",
    "label": "yes"
  },
  {
    "molecule": "COc1cc2nccc(Oc3ccc(NC(=O)Nc4cc(C)on4)c(Cl)c3)c2cc1OC [Tivozanib] + C[C@@H](Oc1cc(-c2cnn(C3CCNCC3)c2)cnc1N)c1c(Cl)ccc(F)c1Cl [Crizotinib] (partner 1 µM)",
    "label": "no"
  },
  {
    "molecule": "Nc1ccn([C@@H]2O[C@H](CO)[C@@H](O)[C@@H]2O)c(=O)n1 [Cytarabine] + NC(=O)Nc1cc(-c2cccc(F)c2)sc1C(=O)N[C@H]1CCCNC1 [AZD7762] (partner 0.2 µM)",
    "label": "yes"
  }
]

----------
- Test system: NCI-H441
- assay_name: relative viability (nuclei count vs DMSO), 5 days (fraction); higher = more cells survive
- reported_conditions: first compound 0.253 µM
Listing of recorded relative viability by entry.

[
  {
    "compound": "O=c1[nH]c2ccccc2n1C1CCN(CCCC(c2ccc(F)cc2)c2ccc(F)cc2)CC1 [Pimozide] + CC(C)C[C@H](NC(=O)[C@H](Cc1ccccc1)NC(=O)c1cnccn1)B(O)O [Bortezomib] (partner 0.002 µM)",
    "relative viability": 0.366
  },
  {
    "compound": "O=c1[nH]c2ccccc2n1C1CCN(CCCC(c2ccc(F)cc2)c2ccc(F)cc2)CC1 [Pimozide] + Nc1ncn([C@H]2C[C@H](O)[C@@H](CO)O2)c(=O)n1 [Decitabine] (partner 2 µM)",
    "relative viability": 0.255
  },
  {
    "compound": "O=c1[nH]c2ccccc2n1C1CCN(CCCC(c2ccc(F)cc2)c2ccc(F)cc2)CC1 [Pimozide] + O=C(CCCCCCC(=O)Nc1ccccc1)NO [Vorinostat] (partner 1 µM)",
    "relative viability": 0.657
  },
  {
    "compound": "Cc1cnc(-c2cnc(NCCNc3ccc(C#N)cn3)nc2-c2ccc(Cl)cc2Cl)[nH]1 + Cc1nc(Nc2ncc(C(=O)Nc3c(C)cccc3Cl)s2)cc(N2CCN(CCO)CC2)n1 [Dasatinib] (partner 0.075 µM)",
    "relative viability": 0.578
  }
]

----------
Each record here notes measured relative viability.
- Test system: LCLC-103H
- assay_name: relative viability (nuclei count vs DMSO), 5 days (fraction); higher = more cells survive
- reported_conditions: first compound 0.5 µM

[
  {
    "compound": "Nc1ccn([C@@H]2O[C@H](CO)[C@@H](O)[C@@H]2O)c(=O)n1 [Cytarabine] + O=C(c1cc(Cc2n[nH]c(=O)c3ccccc23)ccc1F)N1CCN(C(=O)C2CC2)CC1 [Olaparib] (partner 8 µM)",
    "relative viability": 0.792
  },
  {
    "compound": "COc1cc2nccc(Oc3ccc(NC(=O)Nc4cc(C)on4)c(Cl)c3)c2cc1OC [Tivozanib] + NC(=O)Nc1cc(-c2cccc(F)c2)sc1C(=O)N[C@H]1CCCNC1 [AZD7762] (partner 0.2 µM)",
    "relative viability": 0.802
  },
  {
    "compound": "COc1cc2nccc(Oc3ccc(NC(=O)Nc4cc(C)on4)c(Cl)c3)c2cc1OC [Tivozanib] + Nc1nc2[nH]cc(CCc3ccc(C(=O)N[C@@H](CCC(=O)O)C(=O)O)cc3)c2c(=O)[nH]1 [Pemetrexed] (partner 0.2 µM)",
    "relative viability": 0.46
  }
]

----------
Measured relative viability of individual entries
- System: NCI-H1651
- assay_name: relative viability (nuclei count vs DMSO), 5 days (fraction); higher = more cells survive
- reported_conditions: first compound 0.253 µM

[
  {
    "compound": "O=c1[nH]c2ccccc2n1C1CCN(CCCC(c2ccc(F)cc2)c2ccc(F)cc2)CC1 [Pimozide] + O=C(c1cc(Cc2n[nH]c(=O)c3ccccc23)ccc1F)N1CCN(C(=O)C2CC2)CC1 [Olaparib] (partner 8 µM)",
    "relative viability": 0.189
  },
  {
    "compound": "O=c1[nH]c2ccccc2n1C1CCN(CCCC(c2ccc(F)cc2)c2ccc(F)cc2)CC1 [Pimozide] + CC1(C)CCC(c2ccc(Cl)cc2)=C(CN2CCN(c3ccc(C(=O)NS(=O)(=O)c4ccc(N[C@H](CCN5CCOCC5)CSc5ccccc5)c(S(=O)(=O)C(F)(F)F)c4)cc3)CC2)C1 [Navitoclax] (partner 0.5 µM)",
    "relative viability": 1.06
  },
  {
    "compound": "O=c1[nH]c2ccccc2n1C1CCN(CCCC(c2ccc(F)cc2)c2ccc(F)cc2)CC1 [Pimozide] + N=C(N)NC(=N)NCCc1ccccc1 [Phenformin] (partner 250 µM)",
    "relative viability": 0.305
  },
  {
    "compound": "O=c1[nH]c2ccccc2n1C1CCN(CCCC(c2ccc(F)cc2)c2ccc(F)cc2)CC1 [Pimozide] + Cc1nc(Nc2ncc(C(=O)Nc3c(C)cccc3Cl)s2)cc(N2CCN(CCO)CC2)n1 [Dasatinib] (partner 0.075 µM)",
    "relative viability": 0.455
  },
  {
    "compound": "O=c1[nH]c2ccccc2n1C1CCN(CCCC(c2ccc(F)cc2)c2ccc(F)cc2)CC1 [Pimozide] + CS(=O)(=O)CCNCc1ccc(-c2ccc3ncnc(Nc4ccc(OCc5cccc(F)c5)c(Cl)c4)c3c2)o1 [Lapatinib] (partner 2 µM)",
    "relative viability": 0.734
  }
]

----------
- System: LC-2-ad
- assay_name: relative viability (nuclei count vs DMSO), 5 days (fraction); higher = more cells survive
- reported_conditions: first compound 0.1265 µM
measurement_type: relative viability

[
  {
    "compound": "Cc1sc2c(c1C)C(c1ccc(Cl)cc1)=N[C@@H](CC(=O)OC(C)(C)C)c1nnc(C)n1-2 [JQ1] + NC(=O)Nc1cc(-c2cccc(F)c2)sc1C(=O)N[C@H]1CCCNC1 [AZD7762] (partner 0.2 µM)",
    "value_reported": 0.42
  },
  {
    "compound": "Cc1sc2c(c1C)C(c1ccc(Cl)cc1)=N[C@@H](CC(=O)OC(C)(C)C)c1nnc(C)n1-2 [JQ1] + CS(=O)(=O)N1CCN(Cc2cc3nc(-c4cccc5[nH]ncc45)nc(N4CCOCC4)c3s2)CC1 [Pictilisib] (partner 1 µM)",
    "value_reported": 0.605
  },
  {
    "compound": "Cc1sc2c(c1C)C(c1ccc(Cl)cc1)=N[C@@H](CC(=O)OC(C)(C)C)c1nnc(C)n1-2 [JQ1] + COc1cccc2cc(-c3nc([C@H]4CC[C@H](C(=O)O)CC4)n4ncnc(N)c34)[nH]c12 [OSI-027] (partner 0.5 µM)",
    "value_reported": 0.543
  },
  {
    "compound": "Cc1sc2c(c1C)C(c1ccc(Cl)cc1)=N[C@@H](CC(=O)OC(C)(C)C)c1nnc(C)n1-2 [JQ1] + Nc1ncn([C@H]2C[C@H](O)[C@@H](CO)O2)c(=O)n1 [Decitabine] (partner 2 µM)",
    "value_reported": 0.621
  },
  {
    "compound": "Cc1sc2c(c1C)C(c1ccc(Cl)cc1)=N[C@@H](CC(=O)OC(C)(C)C)c1nnc(C)n1-2 [JQ1] + CS(=O)(=O)CCNCc1ccc(-c2ccc3ncnc(Nc4ccc(OCc5cccc(F)c5)c(Cl)c4)c3c2)o1 [Lapatinib] (partner 2 µM)",
    "value_reported": 0.436
  }
]
